Data provenance: patent US12030883B2

pIC50: recorded values
- assayed-target: KRAS G12D (Homo sapiens, UniProt P01116, G12D)
- Sequence (P01116 1-188 isoform P01116-2 G12D): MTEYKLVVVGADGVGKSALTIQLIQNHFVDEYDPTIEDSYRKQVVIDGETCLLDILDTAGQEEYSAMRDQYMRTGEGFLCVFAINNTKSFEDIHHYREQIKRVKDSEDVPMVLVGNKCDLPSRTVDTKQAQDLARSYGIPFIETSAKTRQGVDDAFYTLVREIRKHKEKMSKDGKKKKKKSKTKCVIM
- protocol-description: GDP-GTP exchange assay, KRAS G12D (bodipy-GDP/GppNHp, SOS1)
- Assay type: biochemical
- condition: bodipy-loaded KRAS G12D 2.5 nM, 4 hours pre-incubation with inhibitor, SOS1 150 nM, GppNHp 500 uM; read-out: G12D_exchange (KRAS_G12D exchange assay IC50)
pIC50: −log10 of the molar value.
assay-metric: pIC50

molecule="CN(C)C1CN(c2nc3c(F)c(-c4cc(O)cc5ccccc45)c(CCC#N)cc3c3c2NC(=O)CN3C2C3CNC2C3)C1 (single isomer, unassigned) [Example 13a]" assay_metric=pIC50 observed_measurement="≥ 7.00"
molecule="CC1Cc2c(OC[C@@H]3CCCN3C)nc3c(F)c(-c4cc(O)cc5ccccc45)c(CCC#N)cc3c2N(C2C3CNC2C3)C1 (single isomer, unassigned) [Example 14c]" assay_metric=pIC50 observed_measurement="5.30 to 6.00"
molecule="N#CCCc1cc2c3c(cnc2c(F)c1-c1cc(O)cc2ccccc12)N(c1ccccc1)C(=O)CN3[C@@H]1[C@@H]2CN[C@H]1C2 (relative stereo)" assay_metric=pIC50 observed_measurement="6.00 to 7.00"
molecule="C[C@H](Oc1nc2c(F)c(-c3cccc(Cl)c3Cl)c(CCC#N)cc2c2c1NC(=O)CN2C1C2CNC1C2)[C@@H]1CCCN1C (single isomer, unassigned) [Example 2c]" assay_metric=pIC50 observed_measurement="6.00 to 7.00"
molecule="CNC(=O)c1cccc(-c2nc3c(F)c(-c4cc(O)cc5ccccc45)c(CCC#N)cc3c3c2NC(=O)CN3C2C3CNC2C3)c1 (single isomer, unassigned) [Example 9b]" assay_metric=pIC50 observed_measurement="5.30 to 6.00"
molecule="C[C@@H](CN(C)C)Oc1nc2c(F)c(-c3cc(O)cc4ccccc34)c(CCC#N)cc2c2c1NC(=O)CN2C1C2CNC1C2 (single isomer, unassigned) [Example 11d]" assay_metric=pIC50 observed_measurement="6.00 to 7.00"
molecule="CC1Cc2c(OC[C@@H]3CCCN3C)nc3c(F)c(-c4cc(O)cc5ccccc45)c(CCC#N)cc3c2N(C2C3CNC2C3)C1 (single isomer, unassigned) [Example 14d]" assay_metric=pIC50 observed_measurement="5.30 to 6.00"
molecule="C[C@@H](CN(C)C)Oc1nc2c(F)c(-c3cc(O)cc4ccccc34)c(CCC#N)cc2c2c1CCCN2C1C2CNC1C2 (single isomer, unassigned) [Example 16a]" assay_metric=pIC50 observed_measurement="5.00 to 5.30"
molecule="C[C@H](Oc1nc2c(F)c(-c3cccc4ccc(F)cc34)c(CCC#N)cc2c2c1NC(=O)CN2C1C2CNC1C2)[C@@H]1CCCN1C (single isomer, unassigned) [Example 3b]" assay_metric=pIC50 observed_measurement="6.00 to 7.00"
molecule="CN1CCC[C@H]1COc1nc2c(F)c(-c3cc(O)cc4ccccc34)c(CCC#N)cc2c2c1CCCN2C1C2CNC1C2 (single isomer, unassigned) [Example 12b]" assay_metric=pIC50 observed_measurement="≥ 7.00"
molecule="C[C@H](Oc1nc2c(F)c(-c3c[nH]c4ccccc34)c(CCC#N)cc2c2c1NC(=O)CN2C1C2CNC1C2)[C@@H]1CCCN1C (single isomer, unassigned) [Example 1a]" assay_metric=pIC50 observed_measurement="≥ 7.00"
